- systemUnderTest: human Nav1.6 (hNav1.6) (Homo sapiens, UniProt Q9UQD0)
- Construct: expressed in transfected cells; host or cells: HEK-293 (G418 selection)
- Sequence (Q9UQD0 whole entry): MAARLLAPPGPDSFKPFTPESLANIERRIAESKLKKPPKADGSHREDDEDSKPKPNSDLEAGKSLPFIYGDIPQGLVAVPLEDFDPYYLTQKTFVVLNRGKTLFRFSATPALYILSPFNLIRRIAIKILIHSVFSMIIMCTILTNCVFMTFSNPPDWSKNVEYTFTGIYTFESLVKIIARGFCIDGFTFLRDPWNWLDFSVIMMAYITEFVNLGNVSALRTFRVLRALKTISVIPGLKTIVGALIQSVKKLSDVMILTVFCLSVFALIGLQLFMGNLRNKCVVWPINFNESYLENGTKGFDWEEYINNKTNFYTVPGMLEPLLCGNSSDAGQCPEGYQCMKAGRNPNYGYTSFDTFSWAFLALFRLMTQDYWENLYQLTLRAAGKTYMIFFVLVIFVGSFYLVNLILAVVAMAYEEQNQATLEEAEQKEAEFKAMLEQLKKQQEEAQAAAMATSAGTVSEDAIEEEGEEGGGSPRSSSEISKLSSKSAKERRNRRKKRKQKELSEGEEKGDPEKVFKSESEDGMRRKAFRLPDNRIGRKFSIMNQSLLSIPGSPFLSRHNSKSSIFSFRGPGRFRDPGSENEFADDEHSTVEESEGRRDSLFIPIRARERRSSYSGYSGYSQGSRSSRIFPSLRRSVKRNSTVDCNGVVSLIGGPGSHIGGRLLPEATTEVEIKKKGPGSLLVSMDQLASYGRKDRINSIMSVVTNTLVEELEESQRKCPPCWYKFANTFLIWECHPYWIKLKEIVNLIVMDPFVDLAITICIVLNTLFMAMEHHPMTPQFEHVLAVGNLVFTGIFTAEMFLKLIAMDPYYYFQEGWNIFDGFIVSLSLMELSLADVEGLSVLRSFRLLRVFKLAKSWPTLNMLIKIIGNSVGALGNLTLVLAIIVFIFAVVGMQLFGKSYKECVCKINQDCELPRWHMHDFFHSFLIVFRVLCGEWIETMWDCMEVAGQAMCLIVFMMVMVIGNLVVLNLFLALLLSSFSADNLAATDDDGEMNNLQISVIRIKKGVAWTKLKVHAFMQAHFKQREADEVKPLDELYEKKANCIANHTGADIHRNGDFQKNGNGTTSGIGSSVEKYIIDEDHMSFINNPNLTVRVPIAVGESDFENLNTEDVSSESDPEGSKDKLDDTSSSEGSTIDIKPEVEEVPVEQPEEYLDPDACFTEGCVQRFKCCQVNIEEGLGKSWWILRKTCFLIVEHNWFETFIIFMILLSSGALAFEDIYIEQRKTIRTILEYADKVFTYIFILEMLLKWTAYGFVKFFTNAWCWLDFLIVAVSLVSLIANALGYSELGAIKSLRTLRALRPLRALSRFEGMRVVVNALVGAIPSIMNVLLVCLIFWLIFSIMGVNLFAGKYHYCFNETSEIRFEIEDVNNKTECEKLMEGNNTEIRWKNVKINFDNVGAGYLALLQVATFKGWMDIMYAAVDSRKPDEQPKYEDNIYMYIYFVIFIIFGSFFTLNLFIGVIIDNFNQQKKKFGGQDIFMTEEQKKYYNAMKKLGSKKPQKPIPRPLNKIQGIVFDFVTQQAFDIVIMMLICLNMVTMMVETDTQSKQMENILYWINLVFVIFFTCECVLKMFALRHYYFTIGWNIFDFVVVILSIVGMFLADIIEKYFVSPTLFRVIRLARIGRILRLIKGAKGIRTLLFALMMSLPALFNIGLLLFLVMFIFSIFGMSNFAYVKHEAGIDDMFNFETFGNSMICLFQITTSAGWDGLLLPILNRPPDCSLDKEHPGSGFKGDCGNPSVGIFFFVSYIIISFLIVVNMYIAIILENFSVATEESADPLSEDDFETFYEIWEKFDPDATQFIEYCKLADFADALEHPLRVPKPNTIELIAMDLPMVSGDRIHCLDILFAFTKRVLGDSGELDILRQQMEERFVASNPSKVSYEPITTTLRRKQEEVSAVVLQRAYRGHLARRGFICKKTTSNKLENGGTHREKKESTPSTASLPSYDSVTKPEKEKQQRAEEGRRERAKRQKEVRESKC
- testSummary: Modulation of late sodium current (INaL), PatchXpress electrophysiology
- Format: cell-based
- appliedConditions: HEK293; compound at 1 μM; HEK-293 cells expressing recombinant hNav1.6; late current evoked by 300 nM ATX-II; read-out: INaL v1.6 (1 μM, % Inhibition)
metricName: inhibition at 1 µM

Observe how each entry below is paired with its result.
smilesData | systemUnderTest | inhibition at 1 µM
FC(F)(F)Oc1ccc(-c2ccn3cnc(C(F)(F)F)c3n2)cc1 | human Nav1.6 (hNav1.6) (Homo sapiens, UniProt Q9UQD0) | 30 to 70%
Cc1cc(OC(F)(F)F)ccc1-c1cnn2cncc2c1 | human Nav1.6 (hNav1.6) (Homo sapiens, UniProt Q9UQD0) | < 30%
Fc1cc(-c2cc3cncn3cn2)cnc1OCC(F)(F)F | human Nav1.6 (hNav1.6) (Homo sapiens, UniProt Q9UQD0) | < 30%
CC(C)(Oc1ncc(-c2cc3c(C(F)(F)F)ncn3cn2)cc1F)C(F)(F)F | human Nav1.6 (hNav1.6) (Homo sapiens, UniProt Q9UQD0) | 30 to 70%

Field: next compound
Recorded inhibition at 1 µM of Fc1cc(-c2cc3c(C(F)F)ncn3cn2)cnc1OCC(F)(F)F , please.
< 30%

Reference for the values: patent US11773099B2
